# Test system: Plasmodium falciparum
# method notes: Calibr Malaria Delayed Death Assay SOP
# Format: functional, organism-based
# Design: scale not given: in the data most compounds retested in dose-response had high values
# condition details: concentration 4.99e-06 (unit not given; other assays of the set use mol/L)
The whole screen tested about 38,000 compounds, of which about 1,200 (3.2%) showed an effect of 50% or more. The median lay at about -58%. What follows is part of a selection rich in strong results, with near analogues and random picks from the rest.
quantity kind: Percent Effect (%)

Fc1ccc(OCc2nnc([C@H]3CCN(Cc4ccccn4)C3)o2)cc1 : -10.02
COc1ccc(C(=O)NCCN2CCC(c3cccs3)CC2)cc1OC : 29.34
CC1CCN(CCNC(=O)c2sccc2C2CC2)CC1 : -42.92
CCc1[nH]c2c(CNc3cncc(C(=O)N(C)C)n3)cc(C)cc2c1C : -71.53
CCc1[nH]c2c(CNc3cncc(C(=O)OC)n3)cc(C)cc2c1C : -28.2
Cc1cc(NC(=O)Cn2ccc(-c3ccc4c(c3)OCO4)n2)n(C)n1 : -110.5
CCSc1ccccc1C(=O)NCCN1CCC(c2cccs2)CC1 : 28.22
CC(=O)NCCN1CCC(c2cccs2)CC1 : 2.442
O=C(Cc1ccccc1Cl)NCC1CCN(Cc2ccsc2)CC1 : 33.59
CC(C)c1cc(NC(=O)CN2CCCC2Cn2cncn2)on1 (stereo not drawn) : -56.31
Cc1ccc(CN2CC[C@H]3CO[C@H](CN(C)C)[C@H]3C2)o1 : -9.526
CC(C)C(C(=O)N1CCCN(c2cccnn2)CC1)n1cncn1 (stereo not drawn) : -14.43
Cc1cccc(N2CC[C@H]3[C@H](CO[C@@H]3CN(C)Cc3ccco3)C2)n1.O=C(O)C(F)(F)F.O=C(O)C(F)(F)F : 3.761

---

# Tested on: Plasmodium falciparum
# method notes: Calibr Malaria Delayed Death Assay SOP
# Assay type: functional, organism-based
# Parameters: scale not given: in the data most compounds retested in dose-response had high values
# condition details: concentration 4.99e-06 (unit not given; other assays of the set use mol/L)
Out of some 38,000 compounds screened, about 1,200 (3.2%) showed an effect of 50% or more. The median lay at about -58%. Shown is part of a subset that was picked to be rich in strong results.
quantity kind: Percent Effect (%)

Cc1cc2n(n1)CC(CNC1CCN(Cc3ccccn3)CC1)CN2 (stereo not drawn) : -56.82
Cc1cc2n(n1)CC(CNC1CCN(C(=O)C3CC3)CC1)CN2 (stereo not drawn) : -153
Cc1cc2n(n1)CC(CNC1CCN(C3CC3)CC1)CN2 (stereo not drawn) : -73.71

---

# Tested on: Plasmodium falciparum
# method notes: Calibr Malaria Delayed Death Assay SOP
# Assay type: functional, organism-based
# Parameters: scale not given: in the data most compounds retested in dose-response had high values
# condition details: concentration 4.99e-06 (unit not given; other assays of the set use mol/L)
Hit rate of the full screen: of about 38,000 compounds, about 1,200 (3.2%) showed an effect of 50% or more. The median lay at about -58%. The list comes from a sample in which strong results are over-represented; it also holds close analogues and randomly drawn compounds.
Each entry falls into one class according to its Percent Effect; the ranges are low class (below -40%), middle class (-40% to below 20%), high class (20% or more)

CNc1ncc(CN(C)c2nc(C3CCCC3)nc3c2cnn3C)cn1 : middle class
CN(C)CCOCC1CN(C(=O)c2ccsc2)Cc2ccnn2C1.O=C(O)C(F)(F)F.O=C(O)C(F)(F)F (stereo not given) : middle class
CN(C)CCN1CCN(Cc2cccc(C#N)c2)Cc2cccnc21.O=C(O)C(F)(F)F.O=C(O)C(F)(F)F.O=C(O)C(F)(F)F : high class
Cc1ccc(C(CNCc2cccc3c2OCO3)N2CCOCC2)o1 (stereo not given) : high class
O=C(c1ccc(F)c(F)c1)N1CCC[C@]2(C[C@@H](OCC3CC3)CO2)C1 : middle class
O=C(O)C(F)(F)F.O=C(O)C(F)(F)F.c1ccc(CCN2CCn3cc(Cn4cccn4)nc3C2)cc1 : middle class
Cc1cccc(-n2cc(CN3CCN(C)[C@@H]4CS(=O)(=O)C[C@@H]43)cn2)c1 : low class
COc1ccc2c(c1)C(NCCc1c(C)noc1C)CCCO2 (stereo not given) : high class
CCC1COCCN1C(=O)NCc1nccn1CCc1ccccc1 (stereo not given) : low class
c1csc(C(CNCc2cccc3c2OCO3)N2CCOCC2)c1 (stereo not given) : high class
CCC(NC1CCN(S(C)(=O)=O)CC1)c1cccs1 (stereo not given) : low class
Fc1ccc(-n2cccn2)c(CN2CCCCC2CCn2ccnc2)c1 (stereo not given) : middle class
Fc1cccc(-n2ccc(CN3CCCCC3Cn3cncn3)n2)c1 (stereo not given) : low class
CN1CCN(Cc2cccc(C#N)c2)Cc2cccnc21.O=C(O)C(F)(F)F.O=C(O)C(F)(F)F : low class
c1ccc(Cn2cccn2)c(CN2CCCCC2CCn2ccnc2)c1 (stereo not given) : high class
COc1ccc2c(c1)C(NCCc1ncc(C)s1)CCCO2 (stereo not given) : middle class
COCC(=O)N1Cc2ccnn2CC(COCCN(C)C)C1.O=C(O)C(F)(F)F.O=C(O)C(F)(F)F (stereo not given) : middle class
Fc1cccc(-n2cc(CN3CCCCC3CCn3ccnc3)cn2)c1 (stereo not given) : high class
CSc1nc2ccsc2c(=O)n1CC(=O)N1CCCCC1C (stereo not given) : low class

---

# System: Plasmodium falciparum
# method notes: Calibr Malaria Delayed Death Assay SOP
# Assay type: functional, organism-based
# Design: scale not given: in the data most compounds retested in dose-response had high values
# condition details: concentration 4.99e-06 (unit not given; other assays of the set use mol/L)
Among all 38,000 compounds or so, about 1,200 (3.2%) showed an effect of 50% or more. The median lay at about -58%. Shown is part of a subset that was picked to be rich in strong results.
Percent Effect class ranges: LOW = under -30%, MEDIUM = from -30% up to 30%, HIGH = 30% and over

Cn1c(CN2CCOCC2)cc(=O)c(O)c1CN1CCCCC1 : LOW
COc1cccc([C@@H]2CCN(Cc3cn(C)c4ccccc34)C[C@H]2O)c1 : HIGH
CN(C)CCNC(=O)C1Cc2nc(-c3ccccc3)sc2N1CC1CC1.O=C(O)C(F)(F)F (centres undefined) : HIGH
CN[C@@H](C)C(=O)N(Cc1cccc(C)c1)Cc1ccccc1OC : HIGH
CC1=C(c2ccc(C)cc2)S(=O)(=O)N=C1N1CCc2ccccc21 : MEDIUM
CCCNCc1cn(Cc2ccccc2)nc1-c1cccnc1.Cl : HIGH
Cn1cc(CNCCC(=O)NCc2ccccc2)c(-c2cccnc2)n1 : MEDIUM
CC(C)(C)OC(=O)NC1CCCN(Cc2cccs2)C1 (centres undefined) : MEDIUM
CN(C)C(C)(C)CNCc1cn(C)nc1-c1cccnc1.Cl : MEDIUM
CC(C)c1cccc(S(=O)(=O)NCCCN2CCC(O)CC2)c1 : HIGH
Cc1oncc1C(=O)N1CCC2(CCN(Cc3cccnc3)C2=O)C1.O=C(O)C(F)(F)F (centres undefined) : LOW
CN(C)CCNC(=O)C1Cc2nc(-c3ccsc3)sc2N1CC1CC1.O=C(O)C(F)(F)F (centres undefined) : MEDIUM
Cc1ccc(S(=O)(=O)N(CC(N)=O)CC(C)C)cc1C : MEDIUM
Cn1cc(CNCCNC(=O)Cc2ccccc2)c(-c2cccnc2)n1 : MEDIUM
Cc1nc(CN2CCCN(Cc3nc4ccccc4o3)CC2)no1 : MEDIUM
COc1cccc([C@@H]2CCN(Cc3cccc(C)n3)C[C@H]2O)c1 : LOW
O=S(=O)(NCCCN1CCCC1)c1cc(F)cc(F)c1 : HIGH
COc1cccc(CC(=O)N2CC[C@@H]3CN(C)S(=O)(=O)[C@@H]3CC2)c1 : MEDIUM
Cn1c(CN2CCOCC2)cc(=O)c(O)c1CN1CCOCC1 : LOW

---

# System: Plasmodium falciparum
# method notes: Calibr Malaria Delayed Death Assay SOP
# Format: functional, organism-based
# Design: scale not given: in the data most compounds retested in dose-response had high values
# condition details: concentration 4.99e-06 (unit not given; other assays of the set use mol/L)
Among all 38,000 compounds or so, about 1,200 (3.2%) showed an effect of 50% or more. The median lay at about -58%. The full list was thinned out, with strong results kept by preference.
In this section, each of the compounds is paired with its reported Percent Effect.
quantity kind: Percent Effect (%)

CCCN1CCC(CNC(=O)C2(c3cccc(C)c3)CC2)C1 (centres undefined) : -64.24
COCCN1CCC(CNC(=O)C2(c3ccccc3)CCC2)C1 (centres undefined) : -3.533
CN(Cc1ccco1)[C@@H]1CN(Cc2ccoc2)C[C@@H]2CCCO[C@@H]21 : 59.2
CN(Cc1cncnc1)[C@@H]1CN(Cc2ccco2)C[C@@H]2CCCO[C@@H]21.O=C(O)C(F)(F)F.O=C(O)C(F)(F)F : -10.65
CSCc1cc(C(=O)NC2(C#N)CC2)ccc1F : -114.4
CC(=O)N1CCN(C(=O)Cn2ccc3c(Cl)cccc32)CC1 : -40.91
CCCN1CCC(CNC(=O)C2(c3ccccc3)CCC2)C1 (centres undefined) : 65.3
Cc1cc(C)cc(C2(C(=O)NCC3CCN(CC(F)(F)F)C3)CC2)c1 (centres undefined) : -75.87
CCN1CCC(CNC(=O)C2(c3ccc(F)cc3)CC2)C1 (centres undefined) : 28.54
